Tested on: Phospho-Rb (Ser807/811)
EXPERIMENT_SUMMARY: Phospho-Retinoblastoma (pRB) Cellular Assay
Format: cell-based
CONDITION_DETAILS: Homo sapiens, OVCAR-3; NIH OVCAR3 cells, 24 hours; concentration giving 50% response
pIC50: −log10 of the molar value.
Known pIC50 of a selection of molecules
EXPERIMENTAL_ENDPOINT: pIC50

# MOLECULE, TESTED_TARGET, EXPERIMENTAL_ENDPOINT, ENDPOINT_RESULT
measured = [
    ("COc1c(COC(=O)Nc2ccc(Oc3ccc(F)cc3C)cc2)ccc2c1C(=O)N(C1CCC(=O)NC1=O)C2 (centres unmarked)", "Phospho-Rb (Ser807/811)", "pIC50", 7.19),
    ("COc1c(COC(=O)Nc2ccc(Oc3cc(Cl)cc(Cl)c3)cc2F)ccc2c1C(=O)N(C1CCC(=O)NC1=O)C2 (centres unmarked)", "Phospho-Rb (Ser807/811)", "pIC50", 6.52),
    ("COc1c(COC(=O)Nc2ccc(Oc3ccc(F)c(F)c3)cc2)ccc2c1C(=O)N([C@H]1CCC(=O)NC1=O)C2 (single isomer, unassigned)", "Phospho-Rb (Ser807/811)", "pIC50", 7.07),
    ("COc1c(COC(=O)Nc2ccc(Oc3cc(F)c(F)cc3C)cc2F)ccc2c1C(=O)N(C1CCC(=O)NC1=O)C2 (centres unmarked)", "Phospho-Rb (Ser807/811)", "pIC50", 6.54),
    ("CC(C)Oc1c(COC(=O)Nc2ccc(Oc3ccccc3F)cc2)ccc2c1C(=O)N(C1CCC(=O)NC1=O)C2 (centres unmarked)", "Phospho-Rb (Ser807/811)", "pIC50", 7.40),
    ("O=C1CCC(N2Cc3ccc(COC(=O)Nc4ccc(Oc5ccc(F)c(F)c5)cc4)c(O[C@@H]4CCOC4)c3C2=O)C(=O)N1 (some centres unmarked)", "Phospho-Rb (Ser807/811)", "pIC50", 7.43),
    ("O=C1CCC(N2Cc3ccc(COC(=O)Nc4ccc(Oc5cccc(Cl)c5)cc4)c(O[C@@H]4CCOC4)c3C2=O)C(=O)N1 (some centres unmarked)", "Phospho-Rb (Ser807/811)", "pIC50", 6.76),
    ("O=C1CCC(N2Cc3ccc(COC(=O)Nc4ccc(Oc5ccc(F)cc5F)cc4)c(O[C@@H]4CCOC4)c3C2=O)C(=O)N1 (some centres unmarked)", "Phospho-Rb (Ser807/811)", "pIC50", 7.19),
    ("COc1cc(Oc2cc(F)c(F)cc2C)ccc1NC(=O)OCc1ccc2c(c1OC)C(=O)N(C1CCC(=O)NC1=O)C2 (centres unmarked)", "Phospho-Rb (Ser807/811)", "pIC50", 6.57),
    ("COc1c(COC(=O)Nc2ccc(Oc3cccc(Cl)c3Cl)cc2F)ccc2c1C(=O)N(C1CCC(=O)NC1=O)C2 (centres unmarked)", "Phospho-Rb (Ser807/811)", "pIC50", 7.14),
    ("CN(C)C(=O)COc1c(COC(=O)Nc2ccc(Oc3ccc(F)c(F)c3)cc2)ccc2c1C(=O)N(C1CCC(=O)NC1=O)C2 (centres unmarked)", "Phospho-Rb (Ser807/811)", "pIC50", 7.52),
    ("COc1c(COC(=O)Nc2ccc(Oc3ccc(F)c(C)c3)cc2)ccc2c1C(=O)N(C1CCC(=O)NC1=O)C2 (centres unmarked)", "Phospho-Rb (Ser807/811)", "pIC50", 7.00),
    ("COc1c(COC(=O)Nc2ccc(Oc3ccc(F)cc3)cc2)ccc2c1C(=O)N(C1CCC(=O)NC1=O)C2 (centres unmarked)", "Phospho-Rb (Ser807/811)", "pIC50", 6.60),
    ("COc1c(COC(=O)Nc2ccc(Oc3ccc(Cl)c(F)c3)cc2)ccc2c1C(=O)N(C1CCC(=O)NC1=O)C2 (centres unmarked)", "Phospho-Rb (Ser807/811)", "pIC50", 6.63),
]
